The origin of these recorded values is ChEMBL document CHEMBL3988442.

- System: Wolbachia pipientis
- METHOD DESCRIPTION: Anti-Wolbachia Cell-Based Screen
- Format: functional
- Parameters: scale not given: in the data most compounds retested in dose-response had high values
- APPLIED CONDITIONS: 5 µM
Hit rate of the full screen: of about 48,000 compounds, about 13,000 (27%) showed an effect of 50% or more. This is one part of the list.
PROPERTY NAME: Percent Effect (%)

# COMPOUND, MEAS VALUE
data = [
    ("CC(C)c1nnc2n1CCN(C(=O)c1ccc(OCC3CC3)nc1)C2", -21),
    ("O=C(O)CCc1nc2nccc(-c3ccc(F)cc3)n2n1", 119.2),
    ("CCN(CC1CCOC1)C(=O)CCc1nc(C(C)(C)C)no1 (stereo unspecified)", -1.689),
    ("CC1=N[C@@]2(CC[C@@H]3CN(C(=O)NC(C)C)C[C@@H]32)C(=O)N1CC(C)C", 1.346),
    ("COCC(C)NC(=O)c1cncc(Br)c1 (stereo unspecified)", 15.5),
    ("CC(C)c1cc(C(F)(F)F)n2nc(CCC(=O)O)nc2n1", -4.305),
    ("COc1ccccc1OCCNC(=O)NCc1nc(C)no1", -10.03),
    ("CSCC(C)(O)CNC(=O)Nc1cc(C)cc(C)c1 (stereo unspecified)", -12.06),
    ("OC1CN(Cc2cccc(N3CCOCC3)c2)Cc2ccccc21 (stereo unspecified)", -36.91),
    ("Cc1ccc2c(c1)c(CNC(=O)C1CC(=O)N(C3CCCC3)C1)nn2C (stereo unspecified)", -26.6),
    ("COCCNC(=O)[C@H]1CN(Cc2nccs2)C[C@H]2OCC[C@@H]12.O=C(O)C(F)(F)F.O=C(O)C(F)(F)F", -11.72),
]
